Attribution: ChEMBL document CHEMBL1201862

System: ACHN
Experiment: NCI tumour cell line growth inhibition, 48 h
Activity calls are given as the source filed them. Cut-off read from the data, not from the text of the source: active = GI50 up to about 1.1 µM and inactive = higher.
Outcomes: active, inactive

O=C(O)c1c2c(cc3c1CC(Cc1ccccc1)C3=O)CCC2 (stereo not given): inactive
CC1=C(c2cc(C(=O)Nc3cccc(C(F)(F)F)c3)nc(NC#N)n2)Sc2ccccc2N1: inactive
Nc1ccc(S(=O)(=O)C23CC4CC(CC(C4)C2)C3)cc1: inactive
COc1ccc2c(c1)[n+]([O-])c(C(=O)CC(=O)C(=O)Nc1cccc(Cl)c1C)c(C)[n+]2[O-]: inactive
O=C1c2ccccc2CCCCCCCCCCC12OCCCO2: inactive
CC(=O)N1CN2C(=O)CCC2c2cc(C)ccc21 (stereo not given): inactive
COc1ccc(-c2cc(=O)c3c(O)c(OC)c(OC)c(OC)c3o2)cc1OC [5-DEMETHYLNOBILETIN]: inactive
N#Cc1c(-c2ccccc2)[nH]c2ccc(Cl)cc2c1=O: inactive
O=[N+]([O-])c1ccc(Cc2nc3ccccc3s2)cc1: inactive
O=S(=O)(O)c1ccc(NN(c2c(O)ccc3ccccc23)S(=O)(=O)O)cc1: inactive
O=c1c2ccccc2nc(-c2ccccc2)n1NC(=S)Nc1cccc(Cl)c1: inactive
CC(C)[Si](OC1=C(C(=O)N(C)c2ccccc2Cl)CCCC1)(C(C)C)C(C)C: inactive
CN(C)CCNS(=O)(=O)c1ccc(N)cc1: inactive
Nc1ccc(Oc2ccc(C3(c4ccc(Oc5ccc(N)cc5)cc4)C4CC5CC(C4)CC3C5)cc2)cc1: inactive
COC(=O)[C@@H]1CN(C(=O)CCc2ccccc2)C(=O)N1C(=O)OCc1ccccc1: inactive
NNC(=O)CC(=O)Nc1ccc(S(=O)(=O)c2ccc(NC(=O)CC(=O)NN)cc2)cc1: inactive
CC(=O)OCC(=O)[C@@]1(O)CC[C@H]2[C@@H]3CCC4=CC(=O)[C@H](C)C[C@]4(C)[C@H]3[C@@H](O)C[C@@]21C: inactive
NC(=O)NCCCC(NC(=O)OCCCCCCn1ccc(=O)[nH]c1=O)C(=O)O (stereo not given): inactive
Cc1nc2ccccc2n1Cc1ccc(NC(=S)Nc2ccccc2)cc1: inactive
CC#N.O[C@@H]1CCCC[C@@H]1O.O[C@@H]1CCCC[C@@H]1O.[TeH2]: inactive
Nc1n[n+](CC(=O)c2ccccc2)c2sc(-c3ccccc3)nn12: inactive
Cc1ccc2c(c1)C(c1cccc3ccccc13)OC2=O (stereo not given): inactive
C#CC(O)Cc1ccc(OC)c2occc12 (stereo not given): inactive
CN1C/C(=C\c2ccc(C(=O)O)cc2)C(=O)/C(=C/c2ccc(C(=O)O)cc2)C1: inactive
O=c1oc2ccccc2cc1-c1cn2ccccc2n1: inactive
Cc1ccc(S(=O)(=O)N/N=C/C(=C/c2ccc(Cl)cc2)CC(/C=N/NS(=O)(=O)c2ccc(C)cc2)=C\c2ccc(Cl)cc2)cc1: inactive
CCC(c1ccc(N(C)C)cc1)C1NC(=S)NC1=O (stereo not given): inactive
O=C1Nc2ccccc2/C1=C1/Nc2ccccc2/C1=N/OCCOCCO: active
CC(=O)OC(OC(C)=O)c1ccc2ccc3cccc4ccc1c2c34: inactive
O=C1c2ccc(O)cc2OC(c2cc(O)c(O)c(O)c2)C1O (stereo not given) [DIHYDROBINETIN]: inactive
COc1ccc2c(c1)CCCC(Br)C2=O (stereo not given): inactive
CN(C(=O)C1CCCCCC1=O)c1ccccc1Cl (stereo not given): inactive
CC(C)(CNC(=O)/C(Cl)=C(/Cl)C(=O)O)CNC(=O)/C(Cl)=C(/Cl)C(=O)O: inactive
CC(=O)C(C(=N)C#N)C(=O)Nc1ccccc1 (stereo not given): inactive
C=CCCCCCCCCCOC1C=CC(O)C(CO)O1 (stereo not given): inactive
